Test system: HepG2-CANX-COX4
assay text: phenotypically active (imaging signature differs from DMSO and reproducible) at any of 0.3-9 uM (binary (1 = active, 0 = inactive)); higher = active
test settings: treatment time: 24 h
Where a name gives a salt, the structure may show the parent alone.
property label: phenotypically active
Respond with the number and no other words.

A selection of reference data follows.
What the record says about Cn1cnc2c(F)c(Nc3ccc(Br)cc3Cl)c(C(=O)NOCCO)cc21 [selumetinib] : phenotypically active is 1

Lookup result for O=S(=O)(c1cccc2c(O)nccc12)N1CCCNCC1 [HA 1100 hydrochloride] ; measured phenotypically active: 1

Lab book: phenotypically active of O=C(Nc1ccccc1)N1CCN(c2nc(-c3ccccc3)ns2)CC1 noted as 1

Field: next compound
Value of measured phenotypically active for the entry C[C@H]1O[C@H](O[C@H]2[C@H](O)[C@@H](O)[C@@H](O[C@H]3[C@H](O)[C@@H](O)[C@H](O)O[C@@H]3CO)O[C@@H]2CO)[C@H](O)[C@@H](O)[C@@H]1N[C@H]1C=C(CO)[C@@H](O)[C@H](O)[C@H]1O [Acarbose] : 0

====

Test system: HepG2-ACTB-RAB5A
assay text: phenotypically active (imaging signature differs from DMSO and reproducible) at any of 0.3-9 uM (binary (1 = active, 0 = inactive)); higher = active
test settings: treatment time: 24 h
Counter-ions that a name gives are not always drawn.
property label: phenotypically active
Reply briefly: the number, and no unit.

Here's what some known entries look like.
get_value(item= Cc1ccc(NC(=O)c2ccc(CN3CCN(C)CC3)cc2)cc1Nc1nccc(-c2cccnc2)n1 [Imatinib mesylate] , readout=phenotypically active) returns 1

Note to self: phenotypically active recorded for COc1cc2ncn(-c3cc(OCc4ccccc4C(F)(F)F)c(C(N)=O)s3)c2cc1OC was 1

// sample CC(C)NCC(O)c1ccc(NS(C)(=O)=O)cc1 (stereo not given) , its phenotypically active was 0

Per the record, C[C@@H](c1ncncc1F)[C@](O)(Cn1cncn1)c1ccc(F)cc1F has phenotypically active of 0

Field phenotypically active (entry Nc1ncnc2c1ncn2[C@@H]1O[C@H](CO)[C@@H](O)[C@H]1O ) reads 1

Memo: O=C(NCc1ccccn1)Nc1nnc(-c2ccco2)o1 , reported phenotypically active: 0

***
The reported phenotypically active of the molecule O=C(c1cccc(Cl)c1F)N1CCN(Cc2cccc(Nc3nccs3)n2)CC1 was 1

Given item CCN1/C(=C/C(C)=O)Sc2ccc(O)cc21 , the value recorded as its phenotypically active is 1

Entry C[N+](C)(CCCCCC[N+](C)(C)CCCN1C(=O)c2ccccc2C1=O)CCCN1C(=O)c2ccccc2C1=O [W-84 dibromide] — recorded phenotypically active = 0

Quick note, phenotypically active for NCCC(O)(P(=O)(O)O)P(=O)(O)O [pamidronate] landed at 0

====

phenotypically active values by entry
Tested on: A549-GM130-SQSTM1
assay text: phenotypically active (imaging signature differs from DMSO and reproducible) at any of 0.3-9 uM (binary (1 = active, 0 = inactive)); higher = active
test settings: treatment time: 24 h
Where a name gives a salt, the structure may show the parent alone.
No unit in the answer, only the number.

Some solved entries appear below for comparison.
Form field phenotypically active, entry C[n+]1cccc(C(=O)O)c1 [Trigonelline hydrochloride] : 0

Field phenotypically active (entry CN(C)c1ccc(/C=C2\C(=O)Nc3ccccc32)cc1 ) reads 1

So for Cc1ccc(NC(=O)c2ccc(CN3CCN(C)CC3)cc2)cc1Nc1nccc(-c2cccnc2)n1 [Imatinib mesylate] , the logged phenotypically active turned out to be 1

Further cases:
Short answer for O=C(NOCC1CC1)c1ccc(F)c(F)c1Nc1ccc(I)cc1Cl : phenotypically active was 1

compound COc1ccc(N2C(=O)CSC2c2cccc(Br)c2)c(OC)c1 (centres undefined) , phenotypically active observed: 1

Per the record, Nc1ccc(C(=O)O)c(O)c1 [aminosalicylate] has phenotypically active of 0

Form field phenotypically active, entry COc1cc2nc(N3CCCN(C)CC3)nc(NC3CCN(Cc4ccccc4)CC3)c2cc1OC : 1

Per the records, this compound ( CC(C)Cc1ccc(C(C)C(=O)O)cc1 (centres undefined) ) has phenotypically active equal to 0

Record CCCC(=O)O[C@]1(C(=O)COC(C)=O)CC[C@H]2[C@@H]3C[C@H](F)C4=CC(=O)C=C[C@]4(C)[C@@]3(F)[C@@H](O)C[C@@]21C [difluprednate] . Reported phenotypically active: 1

response.value for N#Cc1c(C2CCNCC2)cc(-c2c(O)cccc2OCC2CC2)nc1N (field: phenotypically active) = 1

So, CC1CNCCN1S(=O)(=O)c1cccc2cnccc12 (centres undefined) [H-7 dihydrochloride] ? Its phenotypically active was 1

# phenotypically active (compound: CCc1cccc2c3c([nH]c12)C(CC)(CC(=O)O)OCC3 (centres undefined) ) is 0

Summary for this compound, CCCc1nc(C)c2c(C)nc3ccc(OC)nc3n12 : phenotypically active is 0

The compound CC[C@@H]1C(=O)N(C)c2cnc(Nc3ccc(C(=O)NC4CCN(C)CC4)cc3OC)nc2N1C1CCCC1 showed phenotypically active equal to 1

Entry under test: COc1cc([C@@H]2c3cc4c(cc3[C@@H](O[C@@H]3O[C@@H]5CO[C@@H](c6cccs6)O[C@H]5[C@H](O)[C@H]3O)[C@H]3COC(=O)[C@H]23)OCO4)cc(OC)c1O [teniposide] . Its phenotypically active was 1

Entry CC(C)NCC(O)c1ccc(NS(C)(=O)=O)cc1 (centres undefined) ; phenotypically active = 0

phenotypically active in this record for O=C(O)c1c(Sc2ccccc2)c2cc(Cl)ccc2n1Cc1ccc(Cl)cc1 : 0

Memo: CC(C)[C@](O)(c1ccc2cc(OC(F)F)c(OC(F)F)cc2c1)c1c[nH]nn1 , reported phenotypically active: 0

COc1ccc2[nH]c(S(=O)Cc3ncc(C)c(OC)c3C)nc2c1 (centres undefined) has a reported phenotypically active of 0

====

Tested on: A549-GM130-SQSTM1
assay text: phenotypically active (imaging signature differs from DMSO and reproducible) at any of 0.3-9 uM (binary (1 = active, 0 = inactive)); higher = active
test settings: treatment time: 24 h
Structures can show the parent of a compound that is named as a salt.
Pick one: active, inactive

Example entries begin here.
GET /call?item= O=C(O)c1ccc(Nc2ncc3c(n2)-c2ccc(Cl)cc2C(c2c(F)cccc2F)=NC3)cc1 returns the recorded outcome of this test. active

What did the test return for OCCN1C[C@H](O)[C@@H](O)[C@H](O)[C@H]1CO ? inactive

Dear all, I need the recorded test outcome for C[C@@H]1O[C@@H](O[C@H]2[C@H](Oc3cc(O)c4c(c3)O[C@H](c3ccc(O)cc3)CC4=O)O[C@H](CO)[C@@H](O)[C@@H]2O)[C@H](O)[C@H](O)[C@H]1O [Naringin hydrate] , thank you. inactive

Write down the call the test reported for this compound. Item: COc1cc2c(N3CCN(C(=O)Nc4ccc(OC(C)C)cc4)CC3)ncnc2cc1OCCCN1CCCCC1 active

Continuing:
Answer briefly: the call reported for CC(CCc1ccc(O)cc1)NCCc1ccc(O)c(O)c1 (stereo not given) [Dobutamine hydrochloride] in this assay. inactive

Outcome logged for Nc1ncnc2c1nc(Cl)n2C1O[C@H](CO)[C@@H](O)[C@H]1O (stereo not given in full) in this assay: active

How was CCC(=O)OCC(=O)[C@@]1(OC(=O)CC)[C@@H](C)C[C@H]2[C@@H]3CCC4=CC(=O)C=C[C@]4(C)[C@@]3(Cl)[C@@H](O)C[C@@]21C [beclomethasone-dipropionate] classified in this test? active

# outcome recorded in this test, key = O=C(O)CCCC[C@@H]1SC[C@@H]2NC(=O)N[C@@H]21 inactive

Could you kindly confirm the outcome this assay logged for COc1ccc(C2(CNC(=O)c3ccc(NC(=O)c4ccco4)cc3)CCOCC2)cc1 ? inactive

Status in this test for CC(C)(C#N)c1cc(Cn2cncn2)cc(C(C)(C)C#N)c1 ? inactive

Hi, sorry to bother you, what did the test record for O=C(OC12CC3CC(CC(C3)C1)C2)c1ccc(NCc2cc(O)ccc2O)cc1 ? active

Returns: the outcome recorded for CCOC(=O)N1CCC(=C2c3ccc(Cl)cc3CCc3cccnc32)CC1 in this assay. inactive

Assay result, entry Nc1ccc(O)c(C(=O)O)c1 — outcome? inactive

I'd appreciate the recorded outcome for NC[C@H](O)c1ccc(O)c(O)c1 [norepinephrine] from this test. inactive

Called result for Cn1nnc2c(C(N)=O)ncn2c1=O [temozolomide] inactive

====

Catalogue of phenotypically active values
Test system: HepG2-ACTB-RAB5A
assay text: phenotypically active (imaging signature differs from DMSO and reproducible) at any of 0.3-9 uM (binary (1 = active, 0 = inactive)); higher = active
test settings: treatment time: 24 h
Where a name gives a salt, the structure may show the parent alone.

Consider the following illustrative entries.
Entry under test: Cc1cc(/N=N/c2cc(S(=O)(=O)O)c(C)cc2C)c(N)cc1O [Ischemin sodium salt] . Its phenotypically active was 0 (inactive)

Item: CCc1nn(CCCN2CCN(c3cccc(Cl)c3)CC2)c(=O)n1CCOc1ccccc1 [nefazodone] | phenotypically active: 0 (inactive)

Entry Nc1ccn([C@@H]2O[C@H](CO)[C@@H](O)C2(F)F)c(=O)n1 [gemcitabine] ; phenotypically active = 1 (active)

phenotypically active recorded for this compound, CCN1CCN(C(c2cccnc2)c2cc(Cl)c3cccnc3c2O)CC1 (centres undefined) , is 1 (active)

The compound listed as NCC(=O)Nc1ccc(-n2nc(C(F)(F)F)cc2-c2ccc3c(ccc4ccccc43)c2)cc1 has a reported phenotypically active of 1 (active)

GET /value?item= NCC[C@H](O)C(=O)N[C@H]1C[C@@H](N)[C@H](O[C@H]2O[C@H](CN)[C@@H](O)[C@H](O)[C@H]2O)[C@@H](O)[C@@H]1O[C@H]1O[C@H](CO)[C@@H](O)[C@H](N)[C@H]1O [Amikacin hydrate] &field=phenotypically active returns 0 (inactive)

The measured phenotypically active associated with CCCc1nc2c(C)cc(-c3nc4ccccc4n3C)cc2n1Cc1ccc(-c2ccccc2C(=O)O)cc1 [telmisartan] reads 0 (inactive)

# phenotypically active (compound: CC1=C(/C=C/C(C)=C/C=C/C(C)=C/C(=O)O)C(C)(C)CCC1 [isotretinoin] ) is 0 (inactive)

Query compound follows.
// field: phenotypically active; key: CC(C)OC(=O)c1cc2c(OCC(O)CNC(C)(C)C)cccc2[nH]1 (centres undefined) ; value = 1 (active)
